Origin of measurements: paper PMC11547513

Overview of recorded melting point for various compounds

Answered cases to consult:
COMPOUND: O=C(CSc1nnc(-c2cc3c(cn2)[nH]c2ccccc23)o1)N1CCN(c2ccc(Cl)cc2)CC1 [Compound 7e]
melting point: 246.4 to 248.3 °C
--
COMPOUND: O=C(CSc1nnc(-c2cc3c(cn2)[nH]c2ccccc23)o1)N1CCN(c2ncccn2)CC1 [Compound 7g]
melting point: 212.6 to 213.3 °C
--
COMPOUND: O=C(CSc1nnc(-c2cc3c(cn2)[nH]c2ccccc23)o1)N1CCN(c2ccc(Br)cc2)CC1 [Compound 7b]
melting point: 275.4 to 277.7 °C

What the record says about O=C(CSc1nnc(-c2cc3c(cn2)[nH]c2ccccc23)o1)N1CCN(c2ccccc2)CC1 [Compound 7i] : melting point is 148.9 to 150.6 °C

The recorded melting point for entry O=C(CSc1nnc(-c2cc3c(cn2)[nH]c2ccccc23)o1)N1CCN(C2CCCCC2)CC1 [Compound 7p] equals 158.8 to 161.4 °C
